Listed next: entries and their corresponding inhibition.
# experiment: growth inhibition, MDA-MB-436, cell-based, BGB or cisplatin combos, synergistic combos for chromothripsis tumors (AID 1671458);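 note: cells exposed for 96 hours; 0% = vehicle DMSO and 100% = killing by high DMSO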
# run_parameters: MDA-MB-436 breast carcinoma growth inhibition, drug combinations; measured here: cisplatin combination; at 5 µM; stronger effect = higher value
Give the quantity in %, number only.

molecule=O=C(/C=C/c1ccc(CN(CCO)CCc2c[nH]c3ccccc23)cc1)NO measured_metric=inhibition unit_abbrev=% measured_number=75.3

# ---- query molecule ----
Task item: In one line, give reported inhibition of the entry COc1cc(C=O)c([N+](=O)[O-])cc1OC .
Reply: 6.49

###

# experiment: viability loss in pontine glioma line – cell-based, JHH-DIPG-1, MIPE4.0, CellTiter-Glo, qHTS, dose response (AID 1347062);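 for AC50: cells exposed to compound for two days before readout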
# run_parameters: JHH-DIPG-1 viability, CellTiter-Glo ATP luminescence
Results filed as inconclusive are left out. The source made the active and inactive calls. The limit is not given here; nearly all actives have AC50 up to about 27 µM.
Respond only with the outcome that fits, drawn from active, inactive

Solved cases below.
molecule="C=C1C(=O)OC(CCCCCCCC)C1C(=O)O (stereo not drawn)" class=inactive
molecule=Cc1cc(Nc2cc(N3CCN(C)CC3)nc(/C=C/c3ccccc3)n2)n[nH]1 class=active
molecule="Cc1noc(-c2ccc(CSCCC(=O)O)cc2)c1NC(=O)OC(C)c1ccccc1Cl (stereo not drawn)" class=inactive
molecule=CO[C@H]1C(=O)[C@]2(C)[C@@H](OC)C[C@H]3OC[C@@]3(OC(C)=O)[C@H]2[C@H](OC(=O)c2ccccc2)[C@]2(O)C[C@H](OC(=O)[C@H](O)[C@@H](NC(=O)OC(C)(C)C)c3ccccc3)C(C)=C1C2(C)C class=inactive

Task item: GET /call?item= C1Cc2[nH]nc(-c3nn[nH]n3)c2C1 returns the recorded outcome of this test.
Reply: inactive

Task item: GET /call?item= CC(C)(O)CCc1ccc(OCc2cc(-c3cccc(OC(F)F)c3)c3ncccc3c2)cc1 returns the recorded outcome of this test.
Reply: inactive

Task item: GET /call?item= CC1COC2(CCN(c3nc(=O)c4cc(C(F)(F)F)cc([N+](=O)[O-])c4s3)CC2)O1 (stereo not drawn) returns the recorded outcome of this test.
Reply: inactive

Task item: GET /call?item= CCN1CCN(CC(=O)Nc2ccc(-c3cccc4c(=O)cc(N5CCOCC5)oc34)c3sc4ccccc4c23)CC1 returns the recorded outcome of this test.
Reply: active

###

# experiment: galactose survival enhancers in mitochondrial complex I cybrids – cell-based, galactose medium, ATP luminescence, primary screen (AID 1645843);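 note: positive z means more ATP and so rescue of galactose-driven cybrid death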
# run_parameters: complex I mutant cybrid cells, 72 h, stronger effect = higher value
Decide using z-score: a value greater than or equal to -0.6 is YES, a smaller one is NO.

Solved cases below.
molecule=CN(CC=CC#CC(C)(C)C)Cc1cccc2ccccc12 class=NO
molecule=COc1cc(N)c(Cl)cc1C(=O)OCCCN1CCCCC1 class=YES
molecule="C#CCN1C(C)=C(C(=O)OC)C(c2cccc([N+](=O)[O-])c2)C(C(=O)OCC)=C1C (stereo unspecified)" class=YES
molecule="CCCCC1CCC(c2nc(-c3ccncc3)no2)CC1 (stereo unspecified)" class=NO

Task item: Does the reported z-score for NC(=O)c1sc(-c2ccsc2)cc1N fall at or above the -0.6 mark?
Reply: YES

Task item: Does the reported z-score for O=C(Nc1ccc([N+](=O)[O-])cc1O)Nc1ccccc1Br fall at or above the -0.6 mark?
Reply: YES
